# EXPERIMENTAL SYSTEM: Salmonella Typhimurium arginine-binding protein STM4351 variant G89A with cpYFP inserted at the 200/203 site (STM4351-200/203-G89A-cpYFP), SEQ ID NO: 7
# METHOD: Fluorescence response and titration of purified probe with arginine
# STUDY CONDITIONS: Figure 3, read-out: affinity for the substrate
# Protocol: • 1. […] Take 100 µl of 5 µM protein solution, incubate at 37 °C for 5 min, add arginine respectively and mix to a final concentration of 100 mM, and measure the light absorption of the protein at 340 nm using a multifunctional fluorescence microplate reader. • 6. Take 100 µl of 1 µM fluorescent probe solution, incubate at 37 °C for 5 min, add arginine for titration, and measure the fluorescence intensity of the protein at 528 nm emission after 485 nm fluorescence excitation. […]
OBSERVED PROPERTY: Kd (µM)

> print(dat)
               entry.smiles  observed.property  unit.of.measure  numeric.value
1  N=C(N)NCCC[C@H](N)C(=O)O                 Kd               µM           23.6

* * *

# EXPERIMENTAL SYSTEM: Salmonella Typhimurium arginine-binding protein STM4351 variant E37A with cpYFP inserted at the 200/203 site (STM4351-200/203-E37A-cpYFP), SEQ ID NO: 5
# METHOD: Fluorescence response and titration of purified probe with arginine
# STUDY CONDITIONS: arginine titration, Figure 3; saturation at 10 mM arginine; read-out: affinity for the substrate
pKd: −log10 of the molar value.
OBSERVED PROPERTY: pKd

> print(dat)
               entry.smiles  observed.property        result
1  N=C(N)NCCC[C@H](N)C(=O)O                pKd  3.68 to 3.77
